# Test system: TO-N3 (biotin conjugate)
# TEST METHOD NOTES: pull-down binding Z-score (relative to library population); higher = stronger binding
# TEST CONTEXT: RNA library: Library-2
Each entry gets FALSE if its pull-down binding Z-score stays under 0.3, and TRUE if its pull-down binding Z-score is 0.3 or above.

>>> assigned_category("GGGCAUUCCGGAUAGGCCGAGAAAGUGUUG [hsa-mir-6723]")
"TRUE"
>>> assigned_category("GGCUAUGGUUUCCAGAGCC [IAV_invivo_PB1_2_Motif_37+IAV_invivo_PB1_2_Motif_37]")
"FALSE"
>>> assigned_category("GAAGCUCCUAUAGCUCCUGUAGCUUC [hsa-mir-578]")
"TRUE"
>>> assigned_category("AUCUGAGGUGACUGGCACAGAAGACUCAGG [hsa-mir-6735]")
"TRUE"
>>> assigned_category("CACUAAUGUGAUUAAUGUUGUUGUG [hsa-mir-3657]")
"FALSE"
>>> assigned_category("CUCAGGAAUUGGAUAAGCUUUUCUGAG [hsa-mir-5194]")
"FALSE"
>>> assigned_category("UGGGUUGGGUUGGGUUGGGUUGGGUUGGGUUGGGUUGGGU [G4_r(UGGGU)8]")
"TRUE"
>>> assigned_category("UACCAUUUAAUGAUGGUG")
"FALSE"
>>> assigned_category("GCAGUGUCGUGGUCACAGCUUGCUGC [hsa-mir-1273h]")
"FALSE"
>>> assigned_category("UGGUUUCACUA [hsa-mir-3713]")
"TRUE"
>>> assigned_category("AACUGUGCGGCCGGCCACACCGUCACACCGGGU [hsa-mir-8083]")
"TRUE"
>>> assigned_category("GAGAGAGUGCACAGCCAGCUCAGGGAUUAAAGCUCUUUCUCUCUCUCUC [hsa-mir-7110]")
"TRUE"
>>> assigned_category("UCUAACUUUAGAGUCCAACCAACAGAAUCUAUUGUUAGA")
"FALSE"
>>> assigned_category("AAAUAAGUACGAUACUUACCUG [U1snRNP5ss-3]")
"FALSE"
>>> assigned_category("GAGCCCUGAGGGGCUC [hsa-mir-6087]")
"FALSE"
>>> assigned_category("AUAGUUUGGGGCUCUGCCCUGCUAUGGGAUAACUAU [hsa-let-7a-3]")
"FALSE"
>>> assigned_category("CCCAGUGCGGGG [IAV_invivo_NP_5_Motif_5+IAV_invivo_NP_5_Motif_5]")
"FALSE"
>>> assigned_category("UGCUGUGCUGUGCUGAGCAGGGCUGAGCUG [hsa-mir-4539]")
"TRUE"
>>> assigned_category("GUCAGUCCCAAUCUGAAUCCCACCAAAAUAGGUGGUAGAGGGUUGC [hsa-mir-4290]")
"FALSE"
>>> assigned_category("UCCUGAGACAGGA [hsa-mir-4261]")
"FALSE"
>>> assigned_category("UGCUCUGGUGACUGAGGACCGCCAGGCA [hsa-mir-4763]")
"FALSE"
>>> assigned_category("CGGUCGGAUAAUCACAUGACGAG [hsa-mir-2114]")
"FALSE"
>>> assigned_category("GUUUCUGUUGUCUGAAAGGAAAGAAAG [hsa-mir-520e]")
"FALSE"
>>> assigned_category("AGUUCAGGAGGUGGCACUGCUGUGUGUGAGCU [hsa-mir-6876]")
"TRUE"
>>> assigned_category("CUGUUUUUCAG")
"FALSE"
>>> assigned_category("GGUUUGUUACAGACACACC [SHAPE_invivo_SARS-CoV-2_Motif_243]")
"FALSE"
>>> assigned_category("GCUGGUCGCGGGUUGUGGGGUUUAGGUCACCGGC [hsa-mir-5091]")
"TRUE"
>>> assigned_category("GGGGAUCUAUCAGAUUCUGGCGAUCUACUCAACUGUCGCCAGUUCACUGGUGCUUUUGGUCUCC [IAV_invivo_HA_4_Motif_19+IAV_invivo_HA_4_Motif_19]")
"TRUE"
>>> assigned_category("GGGUAGGGUUUGGGGGAGAGUGUGGGCUGGGGUUCAGGGACA [pre-miRNA-1229_SNP_FL]")
"TRUE"
>>> assigned_category("CAAGUUAUCACUGAGCGACUUC [hsa-mir-4664]")
"FALSE"
>>> assigned_category("GUUUCUAAAAAAAUAAAAAGUUAAAAAAAUUUAUGUUAACGUGUAAUGUGUUUACUAAUUUUUUUUUUUUUUUUUGGAGAC [hsa-mir-3908]")
"FALSE"
>>> assigned_category("GACUGGACAACAUGAUGAGCCCAAACCAAUC [hsa-mir-5092]")
"FALSE"
>>> assigned_category("GUAGAGGAGGCAAAGACAGUGCUUAAAAAGUGUAAAAGUGCCUUUUAC")
"FALSE"
>>> assigned_category("GGUCUGCAGGACU [IAV_invivo_PA_3_Motif_27+IAV_invivo_PA_3_Motif_27]")
"FALSE"
>>> assigned_category("UGUACGCUUUAUUUGUGACGUAGG [hsa-mir-1197]")
"FALSE"
>>> assigned_category("UGACGAUGCUGUUGUGUGUUUCAAUAGCACUUAUGCAUCUCA [SHAPE_invitro_SARS-CoV-2_Motif_289]")
"TRUE"
>>> assigned_category("UACCGAUGCCAUAGAGGUG [IAV_invivo_PB1_2_Motif_30+IAV_invivo_PB1_2_Motif_30]")
"FALSE"
>>> assigned_category("CAGGCUGGUCUCAAACUCCUGGUCUG [hsa-mir-1285-1]")
"FALSE"
>>> assigned_category("GUGGAGGGUGGUGCCGCCGGGGCCGGGCGCUGUUUCAGCUCGCUUCUCCCCCCAC [hsa-mir-1224]")
"TRUE"
>>> assigned_category("GAUUAUGUGUACCUUCCUUACCCAGAUCCAUCAAGAAUCCUAGGGGCCGGCUGUUUUGUAGAUGAUAUCGUAAAAACAGAUGGUACACUUAUGAUU [SHAPE_invitro_SARS-CoV-2_Multi_44_ComplexLevel_1]")
"TRUE"
